# targetSystem: T1, mouse CXCR4 (mouse, UniProt P70658 1-359)
# T1 construct: Full-length murine CXCR4 on transiently transfected HEK293T cells; also native on mouse lymphocytes and the EL4 line; also called murine CXCR4
# T1 sequence (P70658 whole entry): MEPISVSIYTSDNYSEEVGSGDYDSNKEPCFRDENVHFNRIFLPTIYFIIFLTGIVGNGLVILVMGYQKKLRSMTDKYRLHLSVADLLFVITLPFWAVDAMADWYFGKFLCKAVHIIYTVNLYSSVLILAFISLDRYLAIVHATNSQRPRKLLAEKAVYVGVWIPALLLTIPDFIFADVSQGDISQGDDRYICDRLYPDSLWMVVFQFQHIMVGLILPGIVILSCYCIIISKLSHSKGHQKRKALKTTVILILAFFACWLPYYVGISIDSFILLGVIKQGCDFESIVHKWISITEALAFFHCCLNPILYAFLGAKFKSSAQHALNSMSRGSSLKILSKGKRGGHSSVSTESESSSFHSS
# testDescription: FMAT, hybridoma supernatant on HEK293T cells transiently overexpressing full-length mouse CXCR4
The entries below come with measured FL1 x count values attached.

>  <binder>
7C8 (antibody, V domains shown, Fully human monoclonal antibody from XenoMouse hybridoma) VH: QVQLVESGGGVVQPGRSLRLSCAASGFTFSSYGMHWVRQAPGKGLEWVAVIWYDGTYKYYADSVRGRFTISRDNSKNTLYLQMNSLRAEDTAVYYCARGPLLRYFDWLSDYWGQGTLVTVSS VL: DIQMTQSPSSLSASVGDRVTITCRASQGIRNDLGWYQQKPGKAPKRLIYAATSLQSGVPSRFSGSGSGTEFTLTISSLQPEDFATYYCLQHNNYPRTFGGGTKVEIK

>  <FL1 x count>
21600

$$$$
>  <binder>
2A4 (antibody, V domains shown, Fully human monoclonal antibody from XenoMouse hybridoma; also called mAb 2A4; Mab2A4) VH: QVQLVESGGGVVQPGRSLRLSCAASGFTFSSYGMHWVRQAPGKGLEWVAVISYDGSNKYYADSVKGRFTISRDNSKNTLYLQMNSLRAEDTAVYYCTRGGLAARRNYYYSYGTDVWGQGTTVTVSS VL: DIQMTQSPSSLSASVGDRVTITCRASQDIRNDLGWYQQKPGKAPTRLIYAASSLQSGVPSRFSGSGSGTQFTLTISSLQPEDFATYYCLQHNSYPLTFGGGTKVQIK

>  <FL1 x count>
2860

$$$$
>  <binder>
4C1 (antibody, V domains shown, Fully human monoclonal antibody from XenoMouse hybridoma (strains XMG2 IgG2 or XMG4 IgG4, kappa/lambda); Tested as hybridoma supernatant or purified antibody; also called mAb 4C1; Mab4C1) VH: QVQLVESGGGVVQPGRSLRLSCAASGFTFSSYGMHWVRQAPGKGLEWVAVISYDGSNKYYADSVKGRFTISRDNSKNTLYLQMNSLRAEDTAVYYCTRGGLAARRNYYYSYGMDVWGQGTTVTVSS VL: DIQMTQSPSSLSASVGDRVTITCRASQDIRNDLGWYQQKPGKAPKRLIYAASSLQSGVPSRFSGSGSGTQFTLTISSLQPEDFATYYCLQHNSYPLTFGGGTKVQIK

>  <FL1 x count>
7440

$$$$
>  <binder>
5C9 (antibody, V domains shown, Fully human monoclonal antibody from XenoMouse hybridoma (lambda light chain)) VH: QVQLVESGGGVVQPGRSLRLSCAASGFTFSSYGLHWVRQSPGKGLEWVAVISYDGSKKYYADSVKGRFSISRDNSKNTLYLQMNSLRAEDTAVYYCARDRPSRYSSCMDVWGQGTTVTVSS VL: QSALTQPASVSGSPGQSITISCTGTSSDVGSNNFVSWYQQHPGKAPKLMIYEVSKRPSGVSNRFSGSKSGNTASLTISGLQAEDEADYYCCSYAGSNTLVFGGGTKLTVL

>  <FL1 x count>
344000

$$$$

Origin of the recorded values: patent US20140314784A1
